Source listed as patent US20260000676A1.

target.under.test: ER (Homo sapiens (Human))
test.summary: In-cell western (ICW) ER degradation assay in MCF-7 cells
Type: cell-based
condition.parameters: ER degradation, MCF7, 16 hrs

molecule	target.under.test	DC50
O=C1CC[C@H](NC(=O)c2ccc3c(n2)OC[C@H]2CN(C[C@H]4COC5(CCN(c6ccc([C@@H]7c8ccc(O)cc8OC[C@@H]7c7ccccc7)cc6)CC5)C4)CCN32)C(=O)N1 [Compound A147]	ER (Homo sapiens (Human))	< 1 nM
O=C1CCC(N2Cc3cc(N4CCN(CC5CC6(CCN(c7ccc([C@H]8c9ccc(O)cc9OC[C@H]8c8ccccc8)cn7)CC6)C5)CC4)ccc3C2=O)C(=O)N1 (stereo partly shown) [Compound A98]	ER (Homo sapiens (Human))	< 1 nM
O=C1CCC(Nc2ccc(N3CCN(CC4CC5(CCN(c6ccc([C@H]7c8ccc(O)cc8OC[C@H]7c7ccccc7)cc6)CC5)C4)CC3)c(F)c2)C(=O)N1 (single isomer, unassigned) [Compound A51]	ER (Homo sapiens (Human))	< 1 nM
O=C1CC[C@@H](N2Cc3cc4c(cc3C2=O)OC[C@H]2CN(CC3CC5(CCN(c6ccc([C@@H]7c8ccc(O)cc8OC[C@@H]7c7ccccc7)cc6)CC5)C3)CCN42)C(=O)N1 [Compound A95]	ER (Homo sapiens (Human))	1 to 10 nM
Cc1nn(C2CCC(=O)NC2=O)c2ccc(N3CCN(CC4CCN(c5ccc([C@@H]6c7ccc(O)cc7OC[C@@H]6c6ccccc6)cc5F)CC4)CC3)cc12 (single isomer, unassigned) [Compound A14]	ER (Homo sapiens (Human))	1 to 10 nM
O=C1CC[C@@H](N2Cc3c(ccc4c3OCC43CCN(CC4CC5(CCN(c6ccc([C@H]7c8ccc(O)cc8OC[C@H]7c7ccccc7)cc6)CC5)C4)CC3)C2=O)C(=O)N1 [Compound A143]	ER (Homo sapiens (Human))	10 to 100 nM
O=C1CCC(N2Cc3c(ccc4c3OC[C@H]3CN(CC5CC6(CCN(c7ccc([C@@H]8c9ccc(O)cc9OC[C@@H]8c8ccccc8)cn7)CC6)C5)CCN43)C2=O)C(=O)N1 (single isomer, unassigned) [Compound A66]	ER (Homo sapiens (Human))	1 to 10 nM
O=C1CC[C@@H](Nc2ccc(C3CCN(C[C@H]4COC5(CCN(c6ccc([C@@H]7c8ccc(O)cc8OC[C@@H]7c7ccccc7)cc6)CC5)C4)CC3)c(F)c2)C(=O)N1 (single isomer, unassigned) [Compound A163]	ER (Homo sapiens (Human))	< 1 nM
O=C1CCN(c2ccc(N3CCC4(CC3)CC(CN3CCN(c5ccc([C@H]6c7ccc(O)cc7OC[C@H]6c6ccccc6)cc5)CC3)C4)cc2)C(=O)N1 (single isomer, unassigned) [Compound A107]	ER (Homo sapiens (Human))	1 to 10 nM
COc1cc(N2CCC3(CC2)CC(CN2CCC4(CC2)COc2c4ccc4c2CN(C2CCC(=O)NC2=O)C4=O)C3)c(F)cc1[C@H]1c2ccc(O)cc2OC[C@H]1c1ccccc1 (stereo partly shown) [Compound A131]	ER (Homo sapiens (Human))	1 to 10 nM

###

target.under.test: ER (Homo sapiens (Human), UniProt P03372)
Sequence (P03372 whole entry): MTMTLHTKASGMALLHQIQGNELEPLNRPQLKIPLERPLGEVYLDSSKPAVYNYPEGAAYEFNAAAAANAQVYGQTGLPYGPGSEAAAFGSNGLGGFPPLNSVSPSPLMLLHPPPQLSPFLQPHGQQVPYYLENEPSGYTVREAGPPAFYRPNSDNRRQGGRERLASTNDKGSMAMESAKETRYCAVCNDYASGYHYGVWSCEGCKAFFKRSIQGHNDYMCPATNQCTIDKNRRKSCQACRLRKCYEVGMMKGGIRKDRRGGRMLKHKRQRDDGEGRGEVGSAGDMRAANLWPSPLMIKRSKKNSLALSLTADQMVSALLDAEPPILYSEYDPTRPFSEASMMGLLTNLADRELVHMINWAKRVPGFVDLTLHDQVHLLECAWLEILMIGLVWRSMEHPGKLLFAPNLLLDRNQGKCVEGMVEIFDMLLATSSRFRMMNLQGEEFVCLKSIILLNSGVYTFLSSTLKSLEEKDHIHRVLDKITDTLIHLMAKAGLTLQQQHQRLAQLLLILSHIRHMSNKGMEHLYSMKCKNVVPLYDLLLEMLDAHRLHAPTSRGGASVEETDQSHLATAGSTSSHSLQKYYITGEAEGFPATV
test.summary: In-cell western (ICW) ER degradation assay in MCF-7 cells
Type: cell-based
condition.parameters: ER degradation, MCF7, 16 hrs
Structures can show the parent of a compound that is named as a salt.

compound	DC50
O=C1CCC(N2C(=O)c3cc4c(cc3C2=O)CN(CC(=O)N2CCC3(CC2)CCN(c2ccc([C@H]5c6ccc(O)cc6OC[C@H]5c5ccccc5)cc2)CC3)C4)C(=O)N1 (stereo partly drawn)	1 to 10 nM
O=C1CCC(N2Cc3cc4c(cc3C2=O)CN(C(=O)CN2CCC3(CC2)CN(c2ccc([C@H]5c6ccc(O)cc6OC[C@H]5c5ccccc5)cc2)C3)C4)C(=O)N1 (stereo partly drawn)	> 100 nM
O=C1CC[C@H](N2Cc3c(ccc4c3OC[C@H]3CN(C[C@@H]5COC6(CCN(c7ccc([C@@H]8c9ccc(O)cc9OC[C@@H]8c8ccccc8)cc7F)CC6)C5)CCN43)C2=O)C(=O)N1 (single isomer, unassigned)	< 1 nM
O=C1CC[C@@H](N2Cc3cc4c(cc3C2=O)OCC42CCN(CC3CCC4(CC3)CN(c3ccc([C@H]5c6ccc(O)cc6OC[C@H]5c5ccccc5)cc3)C4)CC2)C(=O)N1	< 1 nM
O=C1CC[C@@H](N2Cc3c(ccc4c3OC[C@@H]3CN(C[C@@H]5COC6(CCN(c7ccc([C@H]8c9ccc(O)cc9OC[C@H]8c8ccccc8)cc7)CC6)C5)CCN43)C2=O)C(=O)N1 (single isomer, unassigned)	1 to 10 nM
O=C1CC[C@@H](N2Cc3cc4c(cc3C2=O)OC[C@@H]2CN(C[C@@H]3COC5(CCN(c6ccc([C@H]7c8ccc(O)cc8OC[C@H]7c7ccccc7)cc6)CC5)C3)CCN42)C(=O)N1	< 1 nM
O=C1CCC(N2Cc3cc4c(cc3C2=O)OC[C@@H]2CN(CC3CC5(CCN(c6ccc([C@H]7c8ccc(O)cc8OC[C@H]7c7ccccc7)cc6)CC5)C3)CCN42)C(=O)N1 (single isomer, unassigned)	1 to 10 nM
O=C1CC[C@H](N2Cc3cc4c(cc3C2)N2CCN(C[C@@H]3COC5(CCN(c6ccc([C@H]7c8ccc(O)cc8OC[C@H]7c7ccccc7)cc6F)CC5)C3)C[C@H]2CO4)C(=O)N1	< 1 nM
O=C1CCC(N2Cc3c(ccc4c3OC[C@H]3CN(CC5CCN(c6ccc([C@H]7c8ccc(O)cc8OC[C@H]7c7ccccc7)cn6)CC5)CCN43)C2=O)C(=O)N1 (single isomer, unassigned)	1 to 10 nM
O=C1CCC(N2C(=O)c3cc4c(cc3C2=O)CN(CC(=O)N2CCC3(CC2)CN(c2ccc([C@@H]5c6ccc(O)cc6OC[C@@H]5c5ccccc5)cc2)C3)C4)C(=O)N1 (single isomer, unassigned)	1 to 10 nM
O=C1CC[C@H](N2Cc3c(ccc4c3OC[C@H]3CN(CC5CCC6(CC5)CN(c5ccc([C@@H]7c8ccc(O)cc8OC[C@@H]7c7ccccc7)cc5)C6)CCN43)C2=O)C(=O)N1 (single isomer, unassigned)	< 1 nM
COc1cc(N2CCC(CN3CCC(c4ccc(N[C@H]5CCC(=O)NC5=O)cc4)CC3)CC2)ccc1[C@@H]1c2ccc(O)cc2OC[C@@H]1c1ccccc1 (stereo in doubt)	< 1 nM
O=C1CCC(N2Cc3cc(N4CCN(CC5CC6(CCN(c7ccc([C@@H]8c9ccc(O)cc9OC[C@@H]8c8ccccc8)cn7)CC6)C5)CC4)ccc3C2=O)C(=O)N1 (single isomer, unassigned) [Compound A92]	< 1 nM
COc1cc(N2CCC(CN3CCN4c5ccc(C(=O)NC6CCC(=O)NC6=O)nc5OC[C@H]4C3)CC2)ccc1C1c2ccc(O)cc2OCC1c1ccccc1 (stereo in doubt)	< 1 nM
O=C1CCC(Nc2ccc(C34CCN(CC5COC6(CCN(c7ccc([C@@H]8c9ccc(O)cc9OC[C@@H]8c8ccccc8)cc7F)CC6)C5)CC3C4(F)F)cc2)C(=O)N1 (stereo partly drawn)	1 to 10 nM
O=C1CCC(N2Cc3cc4c(cc3C2=O)OC[C@@H]2CN(CC3CCC5(CC3)CN(c3ccc([C@@H]6c7ccc(O)cc7OC[C@@H]6c6ccccc6)cc3)C5)CCN42)C(=O)N1 (single isomer, unassigned) [Compound A58]	1 to 10 nM
O=C1CCC(Nc2ccc3c(c2)OC[C@H]2CN(CC4CCN(c5ccc([C@@H]6c7ccc(O)cc7OC[C@@H]6c6ccccc6)cc5)CC4)CCN32)C(=O)N1 (single isomer, unassigned) [Compound A91, hydrochloride]	1 to 10 nM
Cn1c(=O)n(C2CCC(=O)NC2=O)c2ccc(C3CCN(CC4CC5(CCN(c6ccc([C@@H]7c8ccc(O)cc8OC[C@@H]7c7ccccc7)cc6)CC5)C4)CC3)cc21 (single isomer, unassigned)	< 1 nM
